measured.target: Rat FAAH-1 (Rattus norvegicus, UniProt P97612)
Sequence (P97612 1-579): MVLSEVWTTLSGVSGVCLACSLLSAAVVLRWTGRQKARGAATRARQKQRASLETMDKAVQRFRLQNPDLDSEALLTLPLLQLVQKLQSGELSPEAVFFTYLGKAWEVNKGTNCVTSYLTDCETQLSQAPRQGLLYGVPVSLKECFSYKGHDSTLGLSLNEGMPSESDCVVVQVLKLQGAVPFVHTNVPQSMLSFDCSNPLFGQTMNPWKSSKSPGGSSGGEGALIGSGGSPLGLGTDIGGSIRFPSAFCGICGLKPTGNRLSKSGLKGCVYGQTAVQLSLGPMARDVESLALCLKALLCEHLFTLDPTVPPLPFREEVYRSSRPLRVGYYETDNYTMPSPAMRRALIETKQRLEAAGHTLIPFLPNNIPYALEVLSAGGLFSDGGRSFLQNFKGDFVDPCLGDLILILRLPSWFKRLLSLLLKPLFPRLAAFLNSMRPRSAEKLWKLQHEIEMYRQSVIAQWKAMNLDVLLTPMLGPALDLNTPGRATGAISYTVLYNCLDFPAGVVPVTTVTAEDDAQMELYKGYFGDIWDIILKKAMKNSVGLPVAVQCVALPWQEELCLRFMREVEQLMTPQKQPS
protocol.details: Rat FAAH-1 assay (Assay Method 2), 3H-anandamide hydrolysis in cell homogenate
pIC50: −log10 of the molar value.
metric.name: pIC50

Sample records with pIC50:
compound | pIC50
N[C@@H](CNc1cc(-c2ccc(OCC(F)(F)F)cc2)ncn1)c1ccccc1 | 5.70
N[C@@H](CNc1cc(-c2ccc(C(F)(F)F)c(F)c2)ncn1)c1ccccc1 | 6.49
N[C@@H](CNc1cc(-c2ccc3c(C(F)(F)F)noc3c2)ncn1)c1ccccc1 | 7.15
N[C@@H](CNc1cc(-c2cc(F)c(OC(F)F)c(F)c2)ncn1)c1ccccc1 | 7.00
N[C@H](CNc1cc(-c2ccc(C(F)(F)F)c(Cl)c2)ncn1)c1ccc(C(F)(F)F)cc1 | 5.77
N#Cc1cccc([C@@H](N)CNc2cc(-c3ccc(C(F)(F)F)c(Cl)c3)ncn2)c1 | 6.11

P: NC(CNc1cc(-c2ccc(C(F)(F)F)c(Cl)c2)ncn1)c1ccccc1F (stereo not drawn)
Q: N[C@@H](CNc1cc(-c2ccc(C(F)(F)F)c(Cl)c2)ncn1)c1ccc(C(F)(F)F)cc1
In terms of reported pIC50, does P or Q have the smaller number? State the label of the item chosen. P
(P: 6.55, Q: 7.28)

====

measured.target: FAAH (Homo sapiens)
Sequence (O00519 whole entry): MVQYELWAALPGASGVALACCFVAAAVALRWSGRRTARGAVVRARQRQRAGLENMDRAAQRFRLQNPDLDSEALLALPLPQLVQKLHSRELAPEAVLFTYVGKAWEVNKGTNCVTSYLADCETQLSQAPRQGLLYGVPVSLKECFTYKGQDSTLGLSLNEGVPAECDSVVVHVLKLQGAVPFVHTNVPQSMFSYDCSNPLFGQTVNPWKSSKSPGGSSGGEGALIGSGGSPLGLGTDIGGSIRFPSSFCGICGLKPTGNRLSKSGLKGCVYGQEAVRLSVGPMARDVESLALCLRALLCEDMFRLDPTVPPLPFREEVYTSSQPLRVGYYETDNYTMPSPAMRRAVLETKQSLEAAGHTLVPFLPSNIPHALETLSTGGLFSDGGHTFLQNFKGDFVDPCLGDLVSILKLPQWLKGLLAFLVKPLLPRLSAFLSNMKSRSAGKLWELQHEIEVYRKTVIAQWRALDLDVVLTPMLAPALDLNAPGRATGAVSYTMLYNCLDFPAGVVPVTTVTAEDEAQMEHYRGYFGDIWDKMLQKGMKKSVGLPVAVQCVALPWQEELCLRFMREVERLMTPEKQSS
protocol.details: Human FAAH assay (Assay Method 1), 3H-anandamide hydrolysis in cell homogenate
Protocol: A. Transfection of Cells with Human FAAH A 10-cm tissue culture dish with a confluent monolayer of SK-N-MC cells was split 2 days (d) prior to transfection. Using sterile technique, the media was removed and the cells were detached from the dish by the addition of trypsin. One fifth of the cells were then placed onto a new 10-cm dish. […] After 10 d, dishes were analyzed for surviving colonies of cells. […]
Where a name gives a salt, the structure may show the parent alone.
metric.name: IC50 (nM)

Sample records with IC50:
molecule | value
N[C@H](CNc1cc(-c2ccc(C(F)(F)F)c(Cl)c2)ncn1)c1cccc(F)c1 [Example 36, trifluoroacetic acid salt] | 1000
N[C@H](CNc1cc(-c2ccc(C(F)(F)F)c(Cl)c2)ncn1)c1ccc(F)c(F)c1 [Example 40, trifluoroacetic acid salt] | 1000
N#Cc1cccc([C@H](N)CNc2cc(-c3ccc(C(F)(F)F)c(Cl)c3)ncn2)c1 | 3000
N[C@@H](CNc1cc(-c2ccc(OCC(F)(F)F)cc2)ncn1)c1ccccc1 | 130

P: N[C@H](CNc1cc(-c2ccc(C(F)(F)F)c(Cl)c2)ncn1)c1ccc(Cl)c(Cl)c1
Q: N[C@@H](CNc1cc(-c2ccc(OC(F)(F)F)c(Cl)c2)ncn1)c1ccccc1
Could you please tell me which of these two has the higher IC50: P or Q ? State the label of the item chosen. P
(P: 8000 nM, Q: 53 nM)

P: CN(C)S(=O)(=O)c1ccc(-c2cc(NC[C@H](N)c3ccccc3)ncn2)cc1
Q: N[C@@H](CNc1cc(-c2ccc3c(c2)OC(F)(F)O3)ncn1)c1ccccc1
R: N[C@@H](CNc1cc(-c2ccc(OC(F)(F)F)c(F)c2)ncn1)c1ccccc1
Ordering: ascending IC50. // ordering of labels required in reply R, P, Q
(R: 50 nM, P: 113 nM, Q: 270 nM)

====

measured.target: Rat FAAH-1 (Rattus norvegicus)
protocol.details: Rat FAAH-1 assay (Assay Method 2), 3H-anandamide hydrolysis in cell homogenate
metric.name: IC50 (nM)

1: CCOc1ccc(-c2cc(NC[C@H](N)c3ccccc3)ncn2)cc1
2: COc1ccccc1[C@@H](N)CNc1cc(-c2ccc(C(F)(F)F)c(Cl)c2)ncn1
3: N[C@@H](CNc1cc(-c2ccc(C(F)(F)F)c(Cl)c2)ncn1)c1ccc2c(c1)OC(F)(F)O2
Highest IC50 first, then in falling order down to the smallest. // ordering of labels required in reply 2, 1, 3

Values were extracted from patent US8906914B2.
